The reported measurements were obtained from patent US9290496B2.

biological target: EGFR wildtype, endogenous (A549) (Homo sapiens); construct: A549 (EGFR wildtype, endogenous); assay: pEGFR Y1068 ELISA assay, A549 cells; settings: inhibition of phosphorylation of EGFR at Tyr1068; A549 NSCLC cells; 2 hr compound incubation, then stimulated 10 min with EGF (40 ng/mL)
Sequence (P00533 25-1210): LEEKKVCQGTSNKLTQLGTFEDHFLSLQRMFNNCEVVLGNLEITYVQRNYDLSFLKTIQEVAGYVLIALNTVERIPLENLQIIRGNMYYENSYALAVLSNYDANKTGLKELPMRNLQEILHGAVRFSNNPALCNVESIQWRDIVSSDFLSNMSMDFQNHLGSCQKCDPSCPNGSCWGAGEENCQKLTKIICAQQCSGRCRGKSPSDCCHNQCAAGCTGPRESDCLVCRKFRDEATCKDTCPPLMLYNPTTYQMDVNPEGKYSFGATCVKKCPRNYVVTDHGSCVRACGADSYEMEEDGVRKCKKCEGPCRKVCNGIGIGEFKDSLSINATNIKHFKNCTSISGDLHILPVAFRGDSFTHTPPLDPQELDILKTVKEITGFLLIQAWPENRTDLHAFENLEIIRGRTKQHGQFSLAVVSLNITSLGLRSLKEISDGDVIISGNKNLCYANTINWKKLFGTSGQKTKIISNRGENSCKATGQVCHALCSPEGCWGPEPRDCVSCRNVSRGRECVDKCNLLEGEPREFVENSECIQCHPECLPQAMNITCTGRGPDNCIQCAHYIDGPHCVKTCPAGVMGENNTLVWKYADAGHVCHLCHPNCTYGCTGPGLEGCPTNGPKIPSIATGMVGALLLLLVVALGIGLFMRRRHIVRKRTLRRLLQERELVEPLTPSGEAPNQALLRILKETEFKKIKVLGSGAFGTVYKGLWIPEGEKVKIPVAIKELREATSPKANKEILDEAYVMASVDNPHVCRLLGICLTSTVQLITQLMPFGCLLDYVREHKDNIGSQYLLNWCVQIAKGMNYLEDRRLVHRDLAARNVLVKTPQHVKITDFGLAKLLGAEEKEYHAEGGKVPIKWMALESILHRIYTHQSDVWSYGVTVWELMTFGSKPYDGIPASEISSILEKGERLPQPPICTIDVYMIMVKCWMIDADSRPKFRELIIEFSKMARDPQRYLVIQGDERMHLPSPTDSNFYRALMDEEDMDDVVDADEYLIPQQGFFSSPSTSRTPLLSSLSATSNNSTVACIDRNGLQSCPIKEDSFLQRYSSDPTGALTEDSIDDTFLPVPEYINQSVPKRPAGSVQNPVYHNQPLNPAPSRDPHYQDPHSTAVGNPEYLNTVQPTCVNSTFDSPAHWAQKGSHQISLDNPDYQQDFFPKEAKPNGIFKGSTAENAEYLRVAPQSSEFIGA
pIC50: −log10 of the molar value.
Classification field: TRUE = pIC50 at or over 6; FALSE = pIC50 under 6.

compound	discrete-label
C=CC(=O)N[C@@H]1CN(c2nc(Nc3cn(C4CCN(C)C4)nc3OC)c3ncn(CC)c3n2)C[C@H]1F (stereo partly shown) [Example 75]	TRUE
C=CC(=O)NC1(C)CN(c2nc(Nc3cnn(C)c3)c3ncn(C(C)(C)C)c3n2)C1 [Example 8]	FALSE
C=CC(=O)N[C@H]1CCN(c2nc(Nc3cnn(C4CCN(C)C4)c3)c3ncn(C(C)C)c3n2)C1 (stereo partly shown) [Example 45]	FALSE
C=CC(=O)N[C@@H]1CN(c2nc(Nc3cn(C4CCN(C)C4)nc3C)c3ncn(C(C)C)c3n2)C[C@H]1F (stereo partly shown) [Example 55]	TRUE
C=CC(=O)N[C@@H]1CN(c2nc(Nc3cnn(C)c3)c3ncn(C(C)C)c3n2)C[C@H]1OC [Example 63]	TRUE
C=CC(=O)N[C@H]1CCN(c2nc(Nc3ccc(N4CCN(C)CC4)cc3)c3ncn(C(C)CO)c3n2)C1 (stereo partly shown) [Example 48]	FALSE
C=CC(=O)N1C[C@@H]2CN(c3nc(Nc4ccc(N5CCN(C)CC5)cc4)c4ncn(C)c4n3)C[C@@H]2C1 [Example 33]	TRUE

---

target: EGFR L858R+T790M, endogenous (NCI-H1975) (Homo sapiens, UniProt P00533, L858R/T790M); construct: NCI-H1975 (EGFR L858R+T790M, endogenous); experiment: pEGFR Y1068 ELISA assay, NCI-H1975 cells; conditions: inhibition of phosphorylation of EGFR at Tyr1068; NCI-H1975 NSCLC cells; 2 hr compound incubation
Sequence (P00533 25-1210 T790M/L858R): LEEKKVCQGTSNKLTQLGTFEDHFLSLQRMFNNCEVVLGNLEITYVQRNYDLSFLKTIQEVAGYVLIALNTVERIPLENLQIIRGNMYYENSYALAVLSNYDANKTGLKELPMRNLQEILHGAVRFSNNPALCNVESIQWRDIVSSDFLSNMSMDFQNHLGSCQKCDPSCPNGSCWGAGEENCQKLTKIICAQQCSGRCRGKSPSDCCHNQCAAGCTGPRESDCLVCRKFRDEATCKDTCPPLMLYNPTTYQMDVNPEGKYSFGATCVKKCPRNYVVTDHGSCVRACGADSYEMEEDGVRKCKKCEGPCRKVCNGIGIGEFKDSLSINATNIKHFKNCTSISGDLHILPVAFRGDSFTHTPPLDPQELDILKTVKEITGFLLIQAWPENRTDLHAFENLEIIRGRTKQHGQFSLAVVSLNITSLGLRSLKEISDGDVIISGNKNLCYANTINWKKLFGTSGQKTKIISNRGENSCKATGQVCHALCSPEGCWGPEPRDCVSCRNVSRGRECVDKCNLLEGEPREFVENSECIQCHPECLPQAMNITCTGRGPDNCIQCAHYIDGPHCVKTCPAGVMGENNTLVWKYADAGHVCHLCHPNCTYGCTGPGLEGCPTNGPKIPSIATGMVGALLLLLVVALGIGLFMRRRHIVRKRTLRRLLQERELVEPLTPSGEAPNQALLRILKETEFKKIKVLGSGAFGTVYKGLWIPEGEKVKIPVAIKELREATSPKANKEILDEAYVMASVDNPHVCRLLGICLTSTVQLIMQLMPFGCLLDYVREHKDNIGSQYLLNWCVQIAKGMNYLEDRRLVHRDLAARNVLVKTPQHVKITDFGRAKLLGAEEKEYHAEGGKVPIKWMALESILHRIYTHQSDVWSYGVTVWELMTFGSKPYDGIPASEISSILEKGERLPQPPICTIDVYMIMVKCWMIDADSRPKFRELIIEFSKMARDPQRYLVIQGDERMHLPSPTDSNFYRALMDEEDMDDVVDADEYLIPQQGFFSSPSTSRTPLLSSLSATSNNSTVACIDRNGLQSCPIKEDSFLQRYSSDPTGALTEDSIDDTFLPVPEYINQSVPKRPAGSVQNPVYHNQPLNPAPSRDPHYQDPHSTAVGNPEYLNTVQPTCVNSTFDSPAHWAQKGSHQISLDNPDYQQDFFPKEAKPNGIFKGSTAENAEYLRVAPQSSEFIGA
Binary call on IC50 with cut-off 30 nM: strictly below means 1, and equality or higher means -1.

compound	discrete-label
C=CC(=O)N1CCC[C@@H](Oc2nc(Nc3cnn(C)c3)c3ncn(C(C)C)c3n2)C1	-1
C=CC(=O)N[C@H]1CCN(c2nc(Nc3ccc(N4CCN(C)CC4)cc3)c3ncn(CCO)c3n2)C1	-1
C=CC(=O)N[C@H]1CCN(c2nc(Nc3cnn(C4CCN(C)C4)c3)c3ncn(C(C)C)c3n2)C1 (stereo partly drawn)	1
C=CC(=O)N[C@@H]1CN(c2nc(Nc3ccc(N4CCN(C)CC4)cc3)c3ncn(C(C)C)c3n2)C[C@H]1OC (relative stereo) [Example 47]	1
C=CC(=O)N1C[C@@H]2CN(c3nc(Nc4cnn(C)c4)c4ncn(C(C)C)c4n3)C[C@]2(F)C1 (relative stereo)	1
C=CC(=O)N[C@H]1CCN(c2nc(Nc3ccc(N4CCN(C)CC4)cc3)c3ncn(C)c3n2)C1	1
C=CC(=O)NC1(C)CCN(c2nc(Nc3ccc(N4CCN(C)CC4)cc3)c3ncn(C(C)C)c3n2)C1 (stereo not drawn)	-1
C=CC(=O)N1C[C@@H]2CN(c3nc(Nc4ccc(N5CCN(C)CC5)cc4)c4ncn(C)c4n3)C[C@@H]2C1	1
C=CC(=O)N[C@@H]1CN(c2nc(Nc3cnn(C)c3)c3ncn(C(C)C)c3n2)CC1(F)F	1
C=CC(=O)N[C@H]1CCN(c2nc(Nc3cnn(C)c3)c3ncn(C(C)C)c3n2)C1	-1
C=CC(=O)N[C@H]1CCN(c2nc(Nc3ccc(N4CCN(C)CC4)cc3)c3ncn(C(C)CO)c3n2)C1 (stereo partly drawn)	-1
C=CC(=O)N1CC[C@@H](Oc2nc(Nc3ccc(N4CCN(C)CC4)cc3)c3ncn(C(C)C)c3n2)C1	1
C=CC(=O)N[C@H]1CCN(c2nc(Nc3cnn([C@H]4CCN(C)C4)c3)c3ncn(C(C)C)c3n2)C1	-1
C=CC(=O)N[C@@H]1CN(c2nc(Nc3cn(C4CCN(C)C4)nc3C)c3ncn(C(C)C)c3n2)C[C@H]1F (stereo partly drawn) [Example 55]	1
